Target: ENPP1 (Homo sapiens)
Experiment: ENPP1 enzyme assay with cGAMP substrate (AMP-Glo)
Format: biochemical
Design: purchased R&D Systems
Conditions: read-out: cGAMP: % Inhibition at 1 µM
Measured inhibition at 1 µM by item

Example entries and their recorded answers appear below.
{"COMPOUND": "NS(=O)(=O)NCCC1CCN(c2cc(-c3ccc4ncoc4c3)ncn2)CC1 [Example 9]", "inhibition at 1 µM": "< 25%"}
{"COMPOUND": "NS(=O)(=O)NCCC1CCN(c2ccnc(Nc3ccncc3)n2)CC1 [Example 13]", "inhibition at 1 µM": "25 to 50%"}
{"COMPOUND": "COc1cc2ccnc(N3CCC(CCNS(N)(=O)=O)CC3)c2cc1OC [Example 21]", "inhibition at 1 µM": "25 to 50%"}

I'd like to know its inhibition at 1 µM. The compound in question is NS(=O)(=O)NCCC1CCN(c2ccnc(NC(=O)c3cccnc3)n2)CC1 [Example 7]
< 25%

I'd like to know its inhibition at 1 µM. The compound in question is COc1cc2nc(-c3ccncc3)nc(N3CCC(CCNS(N)(=O)=O)CC3)c2cc1OC [Example 6]
25 to 50%

I'd like to know its inhibition at 1 µM. The compound in question is COc1cc2ncnc(N3CCN(CCNS(N)(=O)=O)CC3)c2cc1OC [Example 40]
> 75%

====

Measured pKi by item
Target: ENPP1 (Homo sapiens)
Test: ENPP1 enzyme assay with AMP-pNP substrate (hydrolysis of ATP analog)
Type: biochemical
Conditions: AMP-pNP substrate (ATP analog); Ki from IC50 by Cheng-Prusoff; read-out: ENPP1 Inhibition _AMP-pNP: Ki
pKi: −log10 of the molar value.

Example entries and their recorded answers appear below.
{"SAMPLE_SMILES": "COc1cc2nccc(-c3ccc(CNS(N)(=O)=O)nc3)c2cc1OC", "pKi": "< 6.00"}
{"SAMPLE_SMILES": "COc1cc2ncnc(N3CCC4(CC3)CCN(S(N)(=O)=O)C4)c2cc1OC", "pKi": "> 7.00"}
{"SAMPLE_SMILES": "N#Cc1cnc2cc(OC(F)F)ccc2c1-c1ccc2c(c1)CN(S(N)(=O)=O)CC2", "pKi": "< 6.00"}

I'd like to know its pKi. The molecule in question is COc1cc2c(-c3ccc(CNS(N)(=O)=O)cc3)c(C#N)cnc2cn1
< 6.00

I'd like to know its pKi. The molecule in question is COc1ccc2c(-c3ccc(NS(N)(=O)=O)cc3)ccnc2c1
< 6.00

====

Target: ENPP1 (Homo sapiens, UniProt P22413)
Sequence (P22413 1-925): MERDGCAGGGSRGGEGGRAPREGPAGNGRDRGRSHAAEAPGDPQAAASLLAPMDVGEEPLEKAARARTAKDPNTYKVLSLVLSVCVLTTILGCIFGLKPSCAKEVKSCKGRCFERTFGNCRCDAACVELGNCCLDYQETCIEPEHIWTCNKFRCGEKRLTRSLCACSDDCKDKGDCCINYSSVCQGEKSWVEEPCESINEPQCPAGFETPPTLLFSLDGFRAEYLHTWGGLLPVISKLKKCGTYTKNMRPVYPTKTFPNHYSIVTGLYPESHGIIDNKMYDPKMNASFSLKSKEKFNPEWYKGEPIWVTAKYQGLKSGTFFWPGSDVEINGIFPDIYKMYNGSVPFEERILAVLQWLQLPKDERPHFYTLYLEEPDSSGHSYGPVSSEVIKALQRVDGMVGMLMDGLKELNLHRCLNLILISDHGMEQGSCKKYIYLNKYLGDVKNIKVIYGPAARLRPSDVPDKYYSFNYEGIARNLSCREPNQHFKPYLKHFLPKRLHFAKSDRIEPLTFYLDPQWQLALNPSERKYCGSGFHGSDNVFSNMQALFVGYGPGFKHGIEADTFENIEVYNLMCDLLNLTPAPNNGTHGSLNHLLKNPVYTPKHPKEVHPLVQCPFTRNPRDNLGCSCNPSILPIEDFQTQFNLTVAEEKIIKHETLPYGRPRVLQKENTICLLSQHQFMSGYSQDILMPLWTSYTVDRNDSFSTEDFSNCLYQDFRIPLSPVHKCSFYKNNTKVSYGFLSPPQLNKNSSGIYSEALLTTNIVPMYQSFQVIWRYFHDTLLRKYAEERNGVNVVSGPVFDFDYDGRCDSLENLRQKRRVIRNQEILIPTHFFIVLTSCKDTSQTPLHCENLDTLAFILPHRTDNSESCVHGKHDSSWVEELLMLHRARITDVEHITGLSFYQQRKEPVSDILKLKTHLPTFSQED
Experiment: Substrate selectivity ratio, inhibition of cGAMP hydrolysis versus ATP hydrolysis
Format: biochemical
Conditions: ratio Ki AMP-pNP / Ki cGAMP
Measured Substrate Selectivity: Ki_AMP-pNP/Ki_cGAMP by item
I'd appreciate a reply containing only the number, no unit.

Example entries and their recorded answers appear below.
{"MOLECULE": "COc1cc2ncnc(N3CCN(CCNS(N)(=O)=O)CC3)c2cc1OC", "VALUE_OBSERVED": 24.1}
{"MOLECULE": "COc1cc2nccc(-c3ccc4c(c3)CN(S(N)(=O)=O)CC4)c2cc1OC", "VALUE_OBSERVED": 10.1}
{"MOLECULE": "COc1cc2ncc(-c3ccc4c(c3)CN(S(N)(=O)=O)CC4)c(Cl)c2cc1OC", "VALUE_OBSERVED": 21.5}

Moving on to another molecule below.
I'd like to know its Substrate Selectivity: Ki_AMP-pNP/Ki_cGAMP. The molecule in question is COc1cc2ncnc(NC(C)c3ccc(NS(N)(=O)=O)cc3)c2cc1OC (stereo in doubt) [Example 253]
79.4

====

Target: ENPP1 (Homo sapiens)
Experiment: Substrate selectivity ratio, inhibition of cGAMP hydrolysis versus ATP hydrolysis
Format: biochemical
Settings: ratio Ki AMP-pNP / Ki cGAMP
MEASUREMENT_NAME: Substrate Selectivity: Ki_AMP-pNP/Ki_cGAMP
I'd appreciate a reply containing only the number, no unit.

{"SAMPLE_SMILES": "COc1ccc2c(-c3ccc(CNS(N)(=O)=O)nc3)ccnc2c1", "VALUE_OBSERVED": 54}
{"SAMPLE_SMILES": "COc1cc2ncnc(-c3ccc(CNS(N)(=O)=O)cc3)c2cc1OC", "VALUE_OBSERVED": 189.2}
{"SAMPLE_SMILES": "COc1ccc2nccc(N3CCC4(CC3)CCN(S(N)(=O)=O)C4)c2c1", "VALUE_OBSERVED": 43}

Moving on to another compound below.
Any idea what Substrate Selectivity: Ki_AMP-pNP/Ki_cGAMP came out for NS(=O)(=O)N1CCC2(CCN(c3ncnc4ccccc34)CC2)C1 on ENPP1 (Homo sapiens)?
16.3

====

Target: ENPP1 (Homo sapiens, UniProt P22413)
Assay: ENPP1 enzyme assay with AMP-pNP substrate (hydrolysis of ATP analog)
Type: biochemical
Details: AMP-pNP substrate (ATP analog); Ki from IC50 by Cheng-Prusoff; read-out: ENPP1 Inhibition _AMP-pNP: Ki
pKi: −log10 of the molar value.
Measured pKi by item

Example entries and their recorded answers appear below.
{"COMPOUND": "COc1ccc2c(N3CCc4c3ccc(NS(N)(=O)=O)c4F)ccnc2c1", "pKi": "6.00 to 7.00"}
{"COMPOUND": "COc1ccc2ncc(C#N)c(-c3ccc4c(c3)CN(S(N)(=O)=O)CC4)c2c1", "pKi": "< 6.00"}
{"COMPOUND": "NS(=O)(=O)N1CCC2(CCN(c3ncnc4ccc(F)cc34)CC2)C1", "pKi": "6.00 to 7.00"}
{"COMPOUND": "COc1cc2ncnc(NC(c3ccc(NS(N)(=O)=O)cc3)C3CC3)c2cc1OC (stereo not drawn)", "pKi": "< 6.00"}
{"COMPOUND": "COc1ccc2c(-c3ccc(CNS(N)(=O)=O)cn3)ccnc2c1", "pKi": "< 6.00"}
{"COMPOUND": "COc1ccc2c(Oc3ccc(NS(N)(=O)=O)cc3)c(C)cnc2c1", "pKi": "6.00 to 7.00"}
{"COMPOUND": "COc1cc2nccc(Nc3ccc(NS(=O)(=O)c4ccccc4)cc3)c2cc1OC", "pKi": "< 6.00"}
{"COMPOUND": "CNc1nc(N2CCC(CCNS(N)(=O)=O)CC2)c2cc(OC)c(OC)cc2n1", "pKi": "< 6.00"}

I'd like to know its pKi. The compound in question is COc1cc2nccc(Oc3ccc(S(N)(=O)=O)cc3)c2cn1
6.00 to 7.00

====

Measured pKi by item
Target: ENPP1 (Homo sapiens, UniProt P22413)
Test: Indirect quantitation of 2',3'-cGAMP hydrolysis (AMP-Glo Assay kit)
Assay type: biochemical
Settings: cGAMP substrate; Ki from IC50 by Cheng-Prusoff; read-out: ENPP1 Inhibition -cGAMP: Ki
pKi: −log10 of the molar value.

Example entries and their recorded answers appear below.
{"MOLECULE": "COc1ccc2c(-c3ccc4c(c3)CN(S(N)(=O)=O)CC4)c(C)cnc2c1", "pKi": "> 7.00"}
{"MOLECULE": "COc1cc2ncnc(N3CCC4(CCNC4)CC3)c2cc1OC", "pKi": "6.00 to 7.00"}
{"MOLECULE": "COc1cc2ncnc(NC(C)c3ccc(NS(N)(=O)=O)cc3)c2cc1F (stereo not shown)", "pKi": "> 7.00"}
{"MOLECULE": "COc1cc2ncc(F)c(N3CCC(CCNS(N)(=O)=O)CC3)c2cc1OC", "pKi": "> 7.00"}
{"MOLECULE": "COc1cc2nccc(NC3CCC(NS(N)(=O)=O)CC3)c2cc1OC (stereo not shown)", "pKi": "6.00 to 7.00"}

I'd like to know its pKi. The molecule in question is COc1cc2ncnc(Nc3ccc(CC(=O)O)cc3)c2cc1OC
< 6.00

I'd like to know its pKi. The molecule in question is COc1ccc2c(-n3cc(CNS(N)(=O)=O)cn3)ccnc2c1
6.00 to 7.00

I'd like to know its pKi. The molecule in question is Cn1ncc2c(N3CCC(CCNS(N)(=O)=O)CC3)ccnc21
6.00 to 7.00

I'd like to know its pKi. The molecule in question is CNS(=O)(=O)NCCC1CCN(c2ncnc3cc(OC)c(OC)cc23)CC1
< 6.00

I'd like to know its pKi. The molecule in question is COc1cc2ncc(F)c(-c3ccc4c(c3)CN(S(N)(=O)=O)CC4)c2cc1OC
> 7.00

I'd like to know its pKi. The molecule in question is COc1ccc2ncnc(NCc3ccc(S(N)(=O)=O)cc3)c2c1
> 7.00

I'd like to know its pKi. The molecule in question is COc1cc2ncnc(-c3ccc4c(c3)CCC(NS(N)(=O)=O)C4)c2cc1OC (stereo not shown)
< 6.00

I'd like to know its pKi. The molecule in question is COc1cc2nccc(Nc3ccc(CC(=O)NO)cc3)c2cc1OC
> 7.00

I'd like to know its pKi. The molecule in question is COc1ccc2c(N3CCc4cc(NS(N)(=O)=O)ccc43)ncnc2c1
> 7.00
